Where do the numbers come from? From the supplement of paper PMC6755084.

B1: minF1; the commonest letter at each place (parent)
chain: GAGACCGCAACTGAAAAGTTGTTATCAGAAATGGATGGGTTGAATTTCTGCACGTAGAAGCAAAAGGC

# Variants of: B1
# Assay comment: fraction ligated after 30 min (ligated reads / total reads); higher = more ligase activity
# Test conditions: with F1*subA RNA substrate (template-directed ligation), 42 °C
Class true (1): fraction ligated at least 0.05. Class false (0): fraction ligated below 0.05.

- Mutation spec: "A27T G28T"
  Category: "true (1)"
- Mutation spec: "T25C A43G"
  Category: "false (0)"
- Mutation spec: "A29C T36A"
  Category: "false (0)"
- Mutation spec: "G42T A43C A44T"
  Category: "false (0)"
- Mutation spec: "T36C"
  Category: "false (0)"
- Mutation spec: "A31C A35C"
  Category: "false (0)"
- Mutation spec: "A30G G33A"
  Category: "true (1)"
- Mutation spec: "G28C A43C"
  Category: "true (1)"
- Mutation spec: "A31G"
  Category: "true (1)"
- Mutation spec: "A27C A31G"
  Category: "true (1)"
- Mutation spec: "A31G A44T"
  Category: "true (1)"
- Mutation spec: "T25G A35C"
  Category: "true (1)"
- Mutation spec: "A29T A35C"
  Category: "false (0)"
- Mutation spec: "G28A A31G"
  Category: "true (1)"
- Mutation spec: "G33A T36G"
  Category: "true (1)"
- Mutation spec: "G34A A35T"
  Category: "false (0)"
- Mutation spec: "A29C A35G"
  Category: "true (1)"
- Mutation spec: "G28T G42T"
  Category: "true (1)"
- Mutation spec: "A31T"
  Category: "true (1)"
- Mutation spec: "A29T G42T"
  Category: "true (1)"
- Mutation spec: "T32C A35C"
  Category: "false (0)"
- Mutation spec: "A27T A35C"
  Category: "true (1)"
- Mutation spec: "A31G T36G"
  Category: "false (0)"
- Mutation spec: "T32G A35T"
  Category: "false (0)"
- Mutation spec: "C26G A43G"
  Category: "false (0)"
- Mutation spec: "A31G A35G"
  Category: "true (1)"
- Mutation spec: "G28T G34A"
  Category: "true (1)"
- Mutation spec: "G42C A43T A44T"
  Category: "false (0)"
- Mutation spec: "G42C A43T"
  Category: "false (0)"
- Mutation spec: "C26G A29G"
  Category: "false (0)"
- Mutation spec: "A29C G33T"
  Category: "true (1)"
- Mutation spec: "A35G A44G"
  Category: "true (1)"
- Mutation spec: "A27T G33C"
  Category: "true (1)"
- Mutation spec: "A30C T36G"
  Category: "false (0)"
- Mutation spec: "A35T G42A"
  Category: "false (0)"
- Mutation spec: "G37T A43C"
  Category: "false (0)"
- Mutation spec: "T23A A31T"
  Category: "true (1)"
- Mutation spec: "G28A A30G"
  Category: "true (1)"
- Mutation spec: "A31G A43G"
  Category: "true (1)"
- Mutation spec: "T25G A43C"
  Category: "false (0)"
- Mutation spec: "T25A G37A"
  Category: "false (0)"
- Mutation spec: "G28C A29G"
  Category: "true (1)"
- Mutation spec: "T23A T32C"
  Category: "false (0)"
- Mutation spec: "G33C G37T"
  Category: "false (0)"
- Mutation spec: "T23C A29C"
  Category: "true (1)"
- Mutation spec: "A29C A31G"
  Category: "true (1)"
- Mutation spec: "T25C A30C"
  Category: "true (1)"
- Mutation spec: "C26T A43C"
  Category: "false (0)"
- Mutation spec: "G34C"
  Category: "false (0)"
- Mutation spec: "C26G T36G"
  Category: "false (0)"
- Mutation spec: "A29T A31C"
  Category: "true (1)"
- Mutation spec: "T32C G34T"
  Category: "false (0)"
- Mutation spec: "C26A A30G"
  Category: "true (1)"
- Mutation spec: "T25G A44T"
  Category: "false (0)"
- Mutation spec: "C26G A27T"
  Category: "true (1)"
- Mutation spec: "T36G A43G"
  Category: "false (0)"
- Mutation spec: "A24C A44T"
  Category: "false (0)"
- Mutation spec: "C26T G33A"
  Category: "true (1)"
- Mutation spec: "A24G"
  Category: "true (1)"
- Mutation spec: "A31T G42A"
  Category: "true (1)"
- Mutation spec: "T32G A35G"
  Category: "false (0)"
- Mutation spec: "A27T G42A"
  Category: "true (1)"
- Mutation spec: "T23A A44T"
  Category: "false (0)"
- Mutation spec: "G34T A44T"
  Category: "false (0)"
- Mutation spec: "A35T A43C"
  Category: "false (0)"
- Mutation spec: "A35C A44G"
  Category: "false (0)"
- Mutation spec: "T23C A44T"
  Category: "true (1)"
- Mutation spec: "A29T A31G"
  Category: "true (1)"
- Mutation spec: "C26T A30C"
  Category: "true (1)"
- Mutation spec: "T25C A29C"
  Category: "false (0)"
- Mutation spec: "A29G G33T"
  Category: "true (1)"
- Mutation spec: "G34A T36G"
  Category: "false (0)"
- Mutation spec: "A31T T32G"
  Category: "false (0)"
- Mutation spec: "T23A G37T"
  Category: "false (0)"
- Mutation spec: "A30T G33T"
  Category: "true (1)"
- Mutation spec: "T32G G42C"
  Category: "false (0)"
- Mutation spec: "A29G G37C"
  Category: "false (0)"
- Mutation spec: "A30T A35C"
  Category: "false (0)"
